# System: phospho-cdc37 S13
# measurementProtocol: Western blot of phospho-cdc37 S13 (CK2 substrate) in MDA-MB-231 cells
# Format: cell-based
# conditionsUsed: Homo sapiens; MDA-MB-231 cells, 24 h, densitometry of Western blot; read-out: IC50 pS13 cdc37 phosphorylation
measuredParameter: pIC50
Interpret pIC50 as the negative base-10 log of the concentration measured in mol/L.

What value of pIC50 has been recorded for this entry: O=C(O)c1ccc2c(c1)nc(Nc1cccc(Cl)c1)c1ccncc12 [CX-4945]
5.36

----------
# Test system: phospho-Akt1 S129
# measurementProtocol: Western blot of phospho-Akt1 S129 (CK2 substrate) in MDA-MB-231 cells
# Assay type: cell-based
# conditionsUsed: Homo sapiens; MDA-MB-231 cells, 24 h, densitometry of Western blot; read-out: IC50 pS129 AKT phosphorylation
measuredParameter: pIC50
Interpret pIC50 as the negative base-10 log of the concentration measured in mol/L.

What value of pIC50 has been recorded for this entry: O=C(O)c1ccc2c(c1)nc(Nc1cccc(Cl)c1)c1ccncc12 [CX-4945]
6.05

----------
# Tested on: phospho-cdc37 S13
# measurementProtocol: Western blot of phospho-cdc37 S13 (CK2 substrate) in HeLa cells
# Type: cell-based, human
# conditionsUsed: Homo sapiens, HeLa, 24 h, read-out: IC50 pS13 cdc37 phosphorylation, HeLa cells, 24 h, densitometry of Western blot
measuredParameter: IC50 (µM)
Give a bare numeral; the unit µM is implied.

What value of IC50 has been recorded for this entry: `O=C(O)c1ccc2c(c1)nc(NCc1ccccc1)c1ncncc12`
9

Every entry's value here was drawn from paper PMC12562567.
